Tested on: Diet Induced Obese (DIO) C57BL/6 mice
assay: 10 day DIO mouse model (body weight, food intake, hematology, blood chemistry)
Assay type: in vivo
testContext: 240 h; DIO mouse, 0.3 mpk sc, once a day for 10 days; read-out: DIO Mouse 10-day weight loss vs vehicle
Counter-ions that a name gives are not always drawn.
readout: inhibition in vivo at 0.3 mg/kg
Give your result as the value with the unit written after it.

Worked cases, answers included:
compound="CO[C@@H]1[C@H](OC(=O)N2CC(CCN3CCN(C)C(=O)C3)C2)CC[C@]2(CO2)[C@H]1[C@@]1(C)O[C@@H]1CC=C(C)C [Example 11, formate]" result=2%
compound=CO[C@@H]1[C@H](OC(=O)N2CC[C@@H](CCN3CC(F)(F)C3)C2)CC[C@]2(CO2)[C@H]1[C@@]1(C)O[C@@H]1CC=C(C)C result=15.8%

We next turn to a different compound, shown below.
Indicate the recorded inhibition in vivo at 0.3 mg/kg value for this compound: CO[C@@H]1[C@H](OC(=O)N2CC(CCC3CCN(C)CC3)C2)CC[C@]2(CO2)[C@H]1[C@@]1(C)O[C@@H]1CC=C(C)C [Example 90, formate]
13.5%

----------
Tested on: Diet Induced Obese (DIO) C57BL/6 mice
assay: 10 day DIO mouse model (body weight, food intake, hematology, blood chemistry)
Type: in vivo
testContext: 240 h; DIO mouse, 0.3 mpk sc, once a day for 10 days; read-out: DIO Mouse 10-day weight loss vs vehicle
Counter-ions that a name gives are not always drawn.
Class definitions on inhibition in vivo at 0.3 mg/kg: low: < 6%; medium: ≥ 6% and < 10%; high: ≥ 10%

compound=CO[C@@H]1[C@H](OC(=O)N2CC(CCN3CC(F)(F)C3)C2)CC[C@]2(CO2)[C@H]1[C@@]1(C)O[C@@H]1CCC(C)C assignedlabel=high
compound=CO[C@@H]1[C@H](OC(=O)N2CC[C@H](CCN3CCOCC3)C2)CC[C@]2(CO2)[C@H]1[C@@]1(C)O[C@@H]1CC=C(C)C assignedlabel=high
compound="CCN(CC)CC1CN(C(=O)O[C@@H]2CC[C@]3(CO3)[C@@H]([C@@]3(C)O[C@@H]3CC=C(C)C)[C@@H]2OC)CCO1 (stereo partly drawn) [Example 44, formate]" assignedlabel=low
compound="CO[C@@H]1[C@H](OC(=O)N2CC[C@H]2CN2CCCC2)CC[C@]2(CO2)[C@H]1[C@@]1(C)O[C@@H]1CC=C(C)C [Example 41, formate]" assignedlabel=low
compound=CCN(CC)CCCC1CN(C(=O)O[C@@H]2CC[C@]3(CO3)[C@@H]([C@@]3(C)O[C@@H]3CC=C(C)C)[C@@H]2OC)C1 assignedlabel=medium

Classify this compound: CNC(=O)OC1CN(C(=O)O[C@@H]2CC[C@]3(CO3)[C@@H]([C@@]3(C)O[C@@H]3CC=C(C)C)[C@@H]2OC)C1
high

Classify this compound: CO[C@@H]1[C@H](OC(=O)N2CC(CCN3CCN(CC(F)F)CC3)C2)CC[C@]2(CO2)[C@H]1[C@@]1(C)O[C@@H]1CC=C(C)C
medium

Classify this compound: CO[C@@H]1[C@H](OC(=O)N2CC(CCC3CN(CC(F)F)C3)C2)CC[C@]2(CO2)[C@H]1[C@@]1(C)O[C@@H]1CC=C(C)C
high

Classify this compound: CO[C@@H]1[C@H](OC(=O)N2CC(CCN3CCS(=O)(=O)CC3)C2)CC[C@]2(CO2)[C@H]1[C@@]1(C)O[C@@H]1CC=C(C)C
low

Classify this compound: CO[C@@H]1[C@H](OC(=O)N2CC(CCN3CCC(F)CC3)C2)CC[C@]2(CO2)[C@H]1[C@@]1(C)O[C@@H]1CC=C(C)C
medium

Classify this compound: CO[C@@H]1[C@H](OC(=O)N2CC(Cc3ccc(C)nc3)C2)CC[C@]2(CO2)[C@H]1[C@@]1(C)O[C@@H]1CC=C(C)C
high

----------
Provide the reported inhibition in vivo at 0.3 mg/kg of each item.
Tested on: Male Sprague Dawley rats on high fat diet
assay: 11 day rat DIO model (body weight, food intake, hematology, blood chemistries)
Type: in vivo
testContext: 264 h; DIO rat, 0.3 mpk sc, once a day for 11 days; read-out: DIO Rat 11-day weight loss vs vehicle
Where a name gives a salt, the structure may show the parent alone.
Answers are plain numbers, in %.

Worked cases, answers included:
compound="CO[C@@H]1[C@H](OC(=O)/C=C/c2ccc(OCCN(C)C)cc2)CC[C@]2(CO2)[C@H]1[C@@]1(C)O[C@@H]1CC=C(C)C [A, reference compound]" resultnumber=20
compound="CCN(CC)CC[C@H]1CCN(C(=O)O[C@@H]2CC[C@]3(CO3)[C@@H]([C@@]3(C)O[C@@H]3CC=C(C)C)[C@@H]2OC)C1 [Example 53]" resultnumber=3
compound=CO[C@@H]1[C@H](OC(=O)N2CC[C@@H](CCN3CCOCC3)C2)CC[C@]2(CO2)[C@H]1[C@@]1(C)O[C@@H]1CC=C(C)C resultnumber=7.5
compound="CO[C@@H]1[C@H](OC(=O)N2CC[C@@H](CN3CCOCC3)C2)CC[C@]2(CO2)[C@H]1[C@@]1(C)O[C@@H]1CC=C(C)C [Example 37, formate]" resultnumber=5.3
compound=CO[C@@H]1[C@H](OC(=O)N2CC(CCN3CC(F)(F)C3)C2)CC[C@]2(CO2)[C@H]1[C@@]1(C)O[C@@H]1CCC(C)C resultnumber=7.4

Could you tell me inhibition in vivo at 0.3 mg/kg for each of these compounds? They are listed below.
1. CCN(CC)CC[C@H]1CCN(C(=O)O[C@@H]2CC[C@]3(CO3)[C@@H]([C@@]3(C)O[C@@H]3CC=C(C)C)[C@@H]2OC)C1 [Example 52]
2. CCN(CC)C[C@H]1CCCN1C(=O)O[C@@H]1CC[C@]2(CO2)[C@@H]([C@@]2(C)O[C@@H]2CC=C(C)C)[C@@H]1OC [Example 60, formate]
3. CNC(=O)OCC1CN(C(=O)O[C@@H]2CC[C@]3(CO3)[C@@H]([C@@]3(C)O[C@@H]3CC=C(C)C)[C@@H]2OC)C1
4. CO[C@@H]1[C@H](OC(=O)N2CC(CCN3CCOCC3)C2)CC[C@]2(CO2)[C@H]1[C@@]1(C)O[C@@H]1CCC(C)C
5. CO[C@@H]1[C@H](OC(=O)N2CC(OC(=O)N3CCOCC3)C2)CC[C@]2(CO2)[C@H]1[C@@]1(C)O[C@@H]1CC=C(C)C [Example 71, formate]
6. CO[C@@H]1[C@H](OC(=O)N2CC(CCn3cccn3)C2)CC[C@]2(CO2)[C@H]1[C@@]1(C)O[C@@H]1CC=C(C)C

1. 4
2. 1.95
3. 2.1
4. 6.1
5. 10.3
6. 5.1

Indicate the recorded inhibition in vivo at 0.3 mg/kg value for this compound: CO[C@@H]1[C@H](OC(=O)N2CC[C@H](CCN3CCOCC3)C2)CC[C@]2(CO2)[C@H]1[C@@]1(C)O[C@@H]1CC=C(C)C
7.3

----------
Tested on: Diet Induced Obese (DIO) C57BL/6 mice
assay: 10 day DIO mouse model (body weight, food intake, hematology, blood chemistry)
Type: in vivo
testContext: 240 h; DIO mouse, 0.3 mpk sc, once a day for 10 days; read-out: DIO Mouse 10-day weight loss vs vehicle
Counter-ions that a name gives are not always drawn.
Provide the reported inhibition in vivo at 0.3 mg/kg of each item.
Answers are plain numbers, in %.

Worked cases, answers included:
molecule=CO[C@@H]1[C@H](OC(=O)N2CC(CC(N)=O)C2)CC[C@]2(CO2)[C@H]1[C@@]1(C)O[C@@H]1CC=C(C)C measurementtarget="Diet Induced Obese (DIO) C57BL/6 mice" resultnumber=2.6
molecule="CO[C@@H]1[C@H](OC(=O)N2CC[C@@H]2CN2CCCC2)CC[C@]2(CO2)[C@H]1[C@@]1(C)O[C@@H]1CC=C(C)C [Example 42, formate]" measurementtarget="Diet Induced Obese (DIO) C57BL/6 mice" resultnumber=5.3
molecule=CO[C@@H]1[C@H](OC(=O)N2CC(CCN3CC(F)(F)C3)C2)CC[C@]2(CO2)[C@H]1[C@@]1(C)O[C@@H]1CC=C(C)C measurementtarget="Diet Induced Obese (DIO) C57BL/6 mice" resultnumber=19.7
molecule=CO[C@@H]1[C@H](OC(=O)N2CC(CCC3CCN(CC(F)F)CC3)C2)CC[C@]2(CO2)[C@H]1[C@@]1(C)O[C@@H]1CCC(C)C measurementtarget="Diet Induced Obese (DIO) C57BL/6 mice" resultnumber=15.2
molecule=CO[C@H]1CCN(CCC2CN(C(=O)O[C@@H]3CC[C@]4(CO4)[C@@H]([C@@]4(C)O[C@@H]4CC=C(C)C)[C@@H]3OC)C2)C1 measurementtarget="Diet Induced Obese (DIO) C57BL/6 mice" resultnumber=4.8

We next turn to a different molecule, shown below.
Indicate the recorded inhibition in vivo at 0.3 mg/kg value for this molecule: CO[C@@H]1[C@H](OC(=O)N2CC(CCN3[C@@H]4CC[C@H]3COC4)C2)CC[C@]2(CO2)[C@H]1[C@@]1(C)O[C@@H]1CC=C(C)C
4.2
